The measured values listed here are drawn from the NIST ThermoML archive (doi:10.1021/acs.jced.7b00221).

assay: xn = mol fraction of the nth substance listed; conditions: 288.15 K; 100 kPa; Liquid; Cone and plate viscometry; x1 = 0.5
measured_endpoint: viscosity (mPa·s)
Just the number in mPa·s, nothing appended.

For this molecule ( CCCCCCn1cc[n+](C)c1C.O=[N+]([O-])c1cn[n-]c1 [1-hexyl-2,3-dimethylimidazolium 4-nitropyrazolide] + CCCCCCCCCCCCCC[P+](CCCCCC)(CCCCCC)CCCCCC.O=S(=O)([N-]S(=O)(=O)C(F)(F)F)C(F)(F)F ), measured viscosity is 933

Reported viscosity for CCCCCCCC[P+](CC)(CC)CC.O=[N+]([O-])c1cn[n-]c1 [triethyloctylphosphonium 4-nitropyrazolide] + CCCCCCn1cc[n+](C)c1C.O=S(=O)([N-]S(=O)(=O)C(F)(F)F)C(F)(F)F was 491

Entry under test: CCCCCCCCCCCCCC[P+](CCCCCC)(CCCCCC)CCCCCC.N#Cc1ccc[n-]1 [trihexyl(tetradecyl)phosphonium 2-cyanopyrrolide] + CCCCCCn1cc[n+](C)c1C.O=S(=O)([N-]S(=O)(=O)C(F)(F)F)C(F)(F)F . Its viscosity was 705

====

assay: xn = mol fraction of the nth substance listed; details: 288.15 K; 100 kPa; Liquid; Cone and plate viscometry; x1 = 0.499
Give measured viscosity for each item. Keep answers brief.
The reply should contain only the number, in mPa·s.

Measured viscosity of CCCCCCCC[P+](CC)(CC)CC.O=[N+]([O-])c1cn[n-]c1 [triethyloctylphosphonium 4-nitropyrazolide] + CCCCCC[n+]1ccn(C)c1.O=S(=O)([N-]S(=O)(=O)C(F)(F)F)C(F)(F)F : 314

# viscosity of CC(=O)[O-].CCCCCCCCCCCCCC[P+](CCCCCC)(CCCCCC)CCCCCC [trihexyl(tetradecyl)phosphonium acetate] + CCCCCC[n+]1ccn(C)c1.O=S(=O)([N-]S(=O)(=O)C(F)(F)F)C(F)(F)F = 901

For reference, reported viscosity for CCCCCCn1cc[n+](C)c1.O=[N+]([O-])c1cn[n-]c1 [1-hexyl-3-methylimidazolium 4-nitropyrazolide] + CCCCCCCC[P+](CC)(CC)CC.O=S(=O)([N-]S(=O)(=O)C(F)(F)F)C(F)(F)F stands at 294

CCCCCCn1cc[n+](C)c1.N#Cc1ccc[n-]1 [1-hexyl-3-methylimidazolium 2-cyanopyrrolide] + CCCCCCCCCCCCCC[P+](CCCCCC)(CCCCCC)CCCCCC.O=S(=O)([N-]S(=O)(=O)C(F)(F)F)C(F)(F)F yielded viscosity of 575

====

assay: xn = mol fraction of the nth substance listed; conditions: 313.15 K; 100 kPa; Liquid; Cone and plate viscometry; x1 = 0.6
Would you kindly list viscosity for each of these compounds?
Number in mPa·s, nothing else.

Reported viscosity for CCCCCCCCCCCCCC[P+](CCCCCC)(CCCCCC)CCCCCC.N#Cc1ccc[n-]1 [trihexyl(tetradecyl)phosphonium 2-cyanopyrrolide] + CCCCCC[n+]1ccn(C)c1.O=S(=O)([N-]S(=O)(=O)C(F)(F)F)C(F)(F)F was 136

Value of viscosity reported for the compound CCCCCCCC[P+](CC)(CC)CC.O=[N+]([O-])c1cn[n-]c1 [triethyloctylphosphonium 4-nitropyrazolide] + CCCCCCn1cc[n+](C)c1C.O=S(=O)([N-]S(=O)(=O)C(F)(F)F)C(F)(F)F is 106

Kindly note the recorded viscosity for CCCCCCn1cc[n+](C)c1.N#Cc1ccc[n-]1 [1-hexyl-3-methylimidazolium 2-cyanopyrrolide] + CCCCCCCCCCCCCC[P+](CCCCCC)(CCCCCC)CCCCCC.O=S(=O)([N-]S(=O)(=O)C(F)(F)F)C(F)(F)F , which is 130

Looking up CC(=O)[O-].CCCCCCCCCCCCCC[P+](CCCCCC)(CCCCCC)CCCCCC [trihexyl(tetradecyl)phosphonium acetate] + CCCCCC[n+]1ccn(C)c1.O=S(=O)([N-]S(=O)(=O)C(F)(F)F)C(F)(F)F , I found its viscosity recorded as 207

====

details: 353.15 K; 100 kPa; Liquid; Vibrating tube method
measured_endpoint: mass density (kg/m3)
Enter your answer as a number in kg/m3; do not include the unit.

Value of mass density reported for the compound CCn1cc[n+](C)c1.O=S(=O)([N-]S(=O)(=O)C(F)(F)F)C(F)(F)F is 1464.7

Form field mass density, entry CCCCCCn1cc[n+](C)c1C.O=S(=O)([N-]S(=O)(=O)C(F)(F)F)C(F)(F)F : 1311.5

The reported mass density of the compound CCCCCC[n+]1ccn(C)c1.O=S(=O)([N-]S(=O)(=O)C(F)(F)F)C(F)(F)F was 1322.5

Measured mass density of CCCC[n+]1ccn(C)c1.O=S(=O)([N-]S(=O)(=O)C(F)(F)F)C(F)(F)F : 1385.7

What the record says about CCCCCCCC[P+](CC)(CC)CC.O=[N+]([O-])c1cn[n-]c1 [triethyloctylphosphonium 4-nitropyrazolide] : mass density is 999.2

====

Hi there, I'd appreciate the recorded viscosity for every entry that follows.
test: xn = mol fraction of the nth substance listed; conditions: 303.15 K; 100 kPa; Liquid; Cone and plate viscometry; x1 = 0.898
Numbers only; they are read as mPa·s.

In plain terms, CCCCCCCCCCCCCC[P+](CCCCCC)(CCCCCC)CCCCCC.N#Cc1ccc[n-]1 [trihexyl(tetradecyl)phosphonium 2-cyanopyrrolide] + CCCCCC[n+]1ccn(C)c1.O=S(=O)([N-]S(=O)(=O)C(F)(F)F)C(F)(F)F has a documented viscosity of 303

For CCCCCCn1cc[n+](C)c1C.O=[N+]([O-])c1cn[n-]c1 [1-hexyl-2,3-dimethylimidazolium 4-nitropyrazolide] + CCCCCCCCCCCCCC[P+](CCCCCC)(CCCCCC)CCCCCC.O=S(=O)([N-]S(=O)(=O)C(F)(F)F)C(F)(F)F the molecule record lists viscosity as 545

response.value for CCCCCCCC[P+](CC)(CC)CC.O=[N+]([O-])c1cn[n-]c1 [triethyloctylphosphonium 4-nitropyrazolide] + CCCCCC[n+]1ccn(C)c1.O=S(=O)([N-]S(=O)(=O)C(F)(F)F)C(F)(F)F (field: viscosity) = 192

// field: viscosity; key: CCCCCCCCCCCCCC[P+](CCCCCC)(CCCCCC)CCCCCC.O=[N+]([O-])c1cn[n-]c1 [trihexyl(tetradecyl)phosphonium 4-nitropyrazolide] + CCCCCC[n+]1ccn(C)c1.O=S(=O)([N-]S(=O)(=O)C(F)(F)F)C(F)(F)F ; value = 441

====

assay: xn = mol fraction of the nth substance listed; details: 283.15 K; 100 kPa; Liquid; Cone and plate viscometry; x1 = 0.9
Kindly state viscosity for each of the entries shown.
The figure you give is taken to be in mPa·s; do not add the unit.

What the record says about CCCCCCCC[P+](CC)(CC)CC.O=[N+]([O-])c1cn[n-]c1 [triethyloctylphosphonium 4-nitropyrazolide] + CCCCCCn1cc[n+](C)c1C.O=S(=O)([N-]S(=O)(=O)C(F)(F)F)C(F)(F)F : viscosity is 890

# viscosity (compound: CCCCCCCCCC[P+](CC)(CC)CC.O=[N+]([O-])c1cn[n-]c1 [decyltriethylphosphonium 4-nitropyrazolide] + CC[P+](CC)(CC)COCCOC.O=S(=O)([N-]S(=O)(=O)C(F)(F)F)C(F)(F)F ) is 788

The reported viscosity of the compound CCCCCCn1cc[n+](C)c1.O=[N+]([O-])c1cn[n-]c1 [1-hexyl-3-methylimidazolium 4-nitropyrazolide] + CCCCCCCCCCCCCC[P+](CCCCCC)(CCCCCC)CCCCCC.O=S(=O)([N-]S(=O)(=O)C(F)(F)F)C(F)(F)F was 1540

CCCCCCn1cc[n+](C)c1.O=[N+]([O-])c1cn[n-]c1 [1-hexyl-3-methylimidazolium 4-nitropyrazolide] + CCCCCCCC[P+](CC)(CC)CC.O=S(=O)([N-]S(=O)(=O)C(F)(F)F)C(F)(F)F has a reported viscosity of 1262

viscosity reported for this compound CCCCCCn1cc[n+](C)c1.N#Cc1ccc[n-]1 [1-hexyl-3-methylimidazolium 2-cyanopyrrolide] + CCCCCCCCCCCCCC[P+](CCCCCC)(CCCCCC)CCCCCC.O=S(=O)([N-]S(=O)(=O)C(F)(F)F)C(F)(F)F : 893

====

Please provide measured mass density for the entries that follow.
assay: xn = mol fraction of the nth substance listed; conditions: 293.15 K; 100 kPa; Liquid; Vibrating tube method; x1 = 0.25
Write down the numeric answer in kg/m3 and omit the unit.

mass density reading for CCCCCCn1cc[n+](C)c1.O=[N+]([O-])c1cn[n-]c1 [1-hexyl-3-methylimidazolium 4-nitropyrazolide] + CCCCCCCCCCCCCC[P+](CCCCCC)(CCCCCC)CCCCCC.O=S(=O)([N-]S(=O)(=O)C(F)(F)F)C(F)(F)F : 1074.6

Noted for CCCCCCn1cc[n+](C)c1C.O=[N+]([O-])c1cn[n-]c1 [1-hexyl-2,3-dimethylimidazolium 4-nitropyrazolide] + CCCCCCCCCCCCCC[P+](CCCCCC)(CCCCCC)CCCCCC.O=S(=O)([N-]S(=O)(=O)C(F)(F)F)C(F)(F)F : its mass density reads 1074.6

Just so you know, measured mass density for CCCCCCCC[P+](CC)(CC)CC.O=[N+]([O-])c1cn[n-]c1 [triethyloctylphosphonium 4-nitropyrazolide] + CCCCCC[n+]1ccn(C)c1.O=S(=O)([N-]S(=O)(=O)C(F)(F)F)C(F)(F)F came out at 1288.2

// mass density lookup, compound = CCCCCCCC[P+](CC)(CC)CC.O=[N+]([O-])c1cn[n-]c1 [triethyloctylphosphonium 4-nitropyrazolide] + CCCCCCn1cc[n+](C)c1C.O=S(=O)([N-]S(=O)(=O)C(F)(F)F)C(F)(F)F , result: 1281.8
